Reference for the values: patent EP0739882B1

# assayOverview: Acute toxicity (LD50, s.c.)
# Parameters: species or system mice
# measurementConditions: mouse, in vivo, sc, mortality during 72 hours, Litchfield-Wilcoxon, read-out: LD50 value, mg/kg (95 % confidence limits)
Entries and their LD50 at 72 h
measurementType: LD50 at 72 h

>>> reportedmeasurement("COCC12CN(C)C3C4C(OC)C1C3(C(OC)CC2O)C1CC2(O)C(OC)C(O)C4(O)C1C2OC(=O)c1ccc(Cl)cc1 (stereo not drawn)")
"> 30 mg/kg"
>>> reportedmeasurement("CCN1CC2(COC)CCC(OC)C34C5CC6C(OC)C(=O)C(C5C6OC(=O)c5cccc(Cl)c5)C(C(OC)C23)C14 (stereo not drawn)")
"> 20 mg/kg"
>>> reportedmeasurement("CCN1CC2(COC)CCC(OC)C34C5CC6(O)C(OC)C(=O)C(C5C6OC(=O)c5cccc(Cl)c5)C(C(OC)C23)C14 (stereo not drawn)")
"> 20 mg/kg"
>>> reportedmeasurement("CCN1CC2(COC)C(O)CC(OC)C34C5CC6(O)C(OC)C(O)C(O)(C5C6OC(=O)c5ccc(Br)cc5)C(C(OC)C23)C14 (stereo not drawn)")
"> 30 mg/kg"
>>> reportedmeasurement("CCN1CC2(COC)C(O)CC(OC)C34C5CC6(O)C(OC)C(O)C(O)(C5C6OC(=O)c5ccc(F)cc5)C(C(OC)C23)C14 (stereo not drawn)")
"> 30 mg/kg"
>>> reportedmeasurement("CCN1CC2(COC)C(O)CC(OC)C34C5CC6(O)C(OC)C(=O)C(C5C6OC(=O)c5cccc(Cl)c5)C(C(OC)C23)C14 (stereo not drawn) [14-O-m-chlorobenzoyl-16-epi-pyroaconine]")
"> 20 mg/kg"
